- protocol notes: refractive index (Na D-line) (dimensionless)
- test conditions: 298.15 K; 101.33 kPa; Liquid; Standard Abbe refractometry
property label: refractive index

> print(dat)
                                 compound    property.label  numeric.readout
1  CCOC(C)(C)C [2-ethoxy-2-methylpropane]  refractive index            1.373
2                   CCSCC [3-thiapentane]  refractive index             1.44
3                  C1CCCCC1 [cyclohexane]  refractive index           1.4235
4                     Cc1ccccc1 [toluene]  refractive index           1.4939
